System: Pseudomonas aeruginosa
methodDescription: Antibacterial activity against clinical isolate polymyxin resistant Pseudomonas aeruginosa FADDI-PA070 after 18 hrs by 2 fold serial dilution method
Assay type: functional
conditions: FADDI-PA070, 18 h
Numbered stars: 1 amine (or outer) side, 2 acyl side, 3 side chain; on linkers, the order of the positions; unused ones are H or OH. Bridge positions count the residues as written; N and C are the ends. Square brackets hold non-standard residues; d marks the D form. Peptide text beside a SMILES is read from it. * marks the point of attachment. dBip = N[C@H](Cc1ccc(-c2ccccc2)cc1)C(=O)O; NH(2-ClPh) = Clc1ccccc1N*; dDab = NCC[C@@H](N)C(=O)O; Octanoyl = CCCCCCCC(=O)*; Dab = NCC[C@H](N)C(=O)O; CO = O=C([*:1])[*:2]
measuredEndpoint: MIC (µg/mL)
A number alone suffices; assume µg/mL.

- compound: "CCCCCCCC(=O)N[C@@H](CCN)C(=O)N[C@H](C(=O)N[C@@H](CCN)C(=O)N[C@H]1CCNC(=O)[C@H]([C@@H](C)O)NC(=O)[C@H](CCN)NC(=O)[C@H](CCN)NC(=O)[C@H](CC(C)C)NC(=O)[C@@H](Cc2ccc(-c3ccccc3)cc2)NC(=O)[C@H](CCN)NC1=O)[C@@H](C)O (Octanoyl-[Dab]T[Dab][Dab][Dab][dBip]L[Dab][Dab]T; lactam 4-C)"
  systemUnderTest: "Pseudomonas aeruginosa"
  MIC (µg/mL): 16

API: the following record is the query input.
Problem: # input compound: CC(C)C[C@@H]1NC(=O)[C@@H](Cc2ccccc2)NC(=O)[C@H](CCN)NC(=O)[C@@H](NC(=O)[C@@H](CCN)NC(=O)[C@@H](NC(=O)[C@H](CCN)NC(=O)Nc2ccccc2Cl)[C@@H](C)O)CCNC(=O)[C@H]([C@@H](C)O)NC(=O)[C@H](CCN)NC(=O)[C@H](CCN)NC1=O ({NH(2-ClPh)-CO}-[Dab]T[dDab][Dab][Dab][dF]L[Dab][Dab]T; lactam 4-C) ; wanted: its MIC
Result: 16

---

Tested on: Acinetobacter baumannii
methodDescription: Antibacterial activity against Acinetobacter baumannii ATCC 19606 after 18 hrs by 2 fold serial dilution method
Type: functional
conditions: ATCC 19606, 18 h
Bridge positions count the residues as written; N and C are the ends. Square brackets hold non-standard residues; d marks the D form. Peptide text beside a SMILES is read from it. * marks the point of attachment. dBip = N[C@H](Cc1ccc(-c2ccccc2)cc1)C(=O)O; hSer = N[C@@H](CCO)C(=O)O; Octanoyl = CCCCCCCC(=O)*; Dab = NCC[C@H](N)C(=O)O
measuredEndpoint: MIC (µg/mL)
A number alone suffices; assume µg/mL.

Below, each entry is followed by its recorded MIC result.
- compound: "CCCCCCCC(=O)N[C@@H](CCN)C(=O)N[C@H](C(=O)N[C@@H](CCN)C(=O)N[C@H]1CCNC(=O)[C@H]([C@@H](C)O)NC(=O)[C@H](CCCNC(=N)N)NC(=O)[C@H](CCN)NC(=O)[C@H](CC(C)C)NC(=O)[C@@H](Cc2ccccc2)NC(=O)[C@H](CCN)NC1=O)[C@@H](C)O (Octanoyl-[Dab]T[Dab][Dab][Dab][dF]L[Dab]RT; lactam 4-C)"
  valueReported: 32
- compound: "CCCCCCCC(=O)N[C@@H](CCN)C(=O)N[C@H](C(=O)N[C@@H](CCN)C(=O)N[C@H]1CCNC(=O)[C@H]([C@@H](C)O)NC(=O)[C@H](CCN)NC(=O)[C@H](CCN)NC(=O)[C@H](CC(C)C)NC(=O)[C@@H](Cc2ccc(-c3ccccc3)cc2)NC(=O)[C@H](CCN)NC1=O)[C@@H](C)O (Octanoyl-[Dab]T[Dab][Dab][Dab][dBip]L[Dab][Dab]T; lactam 4-C)"
  valueReported: 0.5
- compound: "CCCCCCCC(=O)N[C@@H](CCN)C(=O)N[C@H](C(=O)N[C@@H](CCN)C(=O)N[C@H]1CCNC(=O)[C@H]([C@@H](C)O)NC(=O)[C@H](CCN)NC(=O)[C@H](CCO)NC(=O)[C@H](CC(C)C)NC(=O)[C@@H](Cc2ccccc2)NC(=O)[C@H](CCN)NC1=O)[C@@H](C)O (Octanoyl-[Dab]T[Dab][Dab][Dab][dF]L[hSer][Dab]T; lactam 4-C)"
  valueReported: 8
- compound: "CCCCCCCC(=O)N[C@@H](CCN)C(=O)N[C@H](C(=O)N[C@@H](CCN)C(=O)N[C@H]1CCNC(=O)[C@H]([C@@H](C)O)NC(=O)[C@H](CCN)NC(=O)[C@H](CCCNC(=N)N)NC(=O)[C@H](CC(C)C)NC(=O)[C@@H](Cc2ccccc2)NC(=O)[C@H](CCN)NC1=O)[C@@H](C)O"
  valueReported: 0.5

API: the following record is the query input.
Problem: # input compound: CCCCCCCC(=O)N[C@@H](CCN)C(=O)N[C@H](C(=O)N[C@@H](CCN)C(=O)N[C@H]1CCNC(=O)[C@H]([C@@H](C)O)NC(=O)[C@H](CCN)NC(=O)[C@H](Cc2ccc(N)cc2)NC(=O)[C@H](CC(C)C)NC(=O)[C@@H](Cc2ccccc2)NC(=O)[C@H](CCN)NC1=O)[C@@H](C)O ; wanted: its MIC
Result: 4
